target: Ras farnesyl transferase (Homo sapiens, UniProt P49354+P49356); construct: made in house; test: in vitro inhibitory activity for Ras farnesyl transferase, K-Ras substrate; type: biochemical; settings: recombinant Ras farnesyl transferase, K-Ras substrate; read-out: K-Ras IC50
result.type: IC50

• COCCN(C)C(=O)c1cn(Cc2cncn2CC2CCN(C(=O)CCc3ccccc3)CC2)cc1-c1cccc2ccccc12 [Compound 15] = 10 to 1000 nM
• CCC(=O)N1CCC(Cn2cncc2Cn2cc(C(=O)N(C)CCOC)c(-c3cccc4ccccc34)c2)CC1 [Compound 18] = 10 to 1000 nM

From here, focus on the item given below.
Using the record for COCCN(C)C(=O)c1cn(Cc2cncn2CC2CCN(C(=O)c3csc(C(C)C)n3)CC2)cc1-c1cccc2ccccc12 [Compound 29] , report its IC50.
10 to 100 nM
